Quick record of IC50 values for Aurora-2 (Homo sapiens, UniProt O14965).
The reply should be a number in nM, with the unit left off.

Record C[C@@H](C(=O)N1Cc2[nH]nc(NC(=O)c3ccc(N4CCN(C)CC4)cc3)c2C1)c1ccccc1 [Compound (11)] has Aurora-2 (Homo sapiens, UniProt O14965) IC50 equal to 63

Record CN1CCN(c2ccc(C(=O)Nc3[nH]nc4c3CN(C(=O)Cc3ccccc3)C4)cc2)CC1 [Reference compound, reference compound] has Aurora-2 (Homo sapiens, UniProt O14965) IC50 equal to 140

* * *

- Test system: HCT-116
- Assay details: In vitro cell cycle analysis
- Format: cell-based, human
- Measurement setup: HCT-116, 200 nM, treated for 24 hours
Measured property: Cell Cycle block (% G2/M + polyploidy at 200 nM) (%)
The reply should be a number in %, with the unit left off.

compound="CO[C@@H](C(=O)N1Cc2[nH]nc(NC(=O)c3ccc(N4CCN(C)C(C)C4)cc3)c2C1)c1ccccc1 (some centres unmarked) [Compound (5)]" numeric_readout=90
compound="CO[C@@H](C(=O)N1Cc2[nH]nc(NC(=O)c3ccc(N4CCN(C)CC4)cc3)c2C1)c1ccccc1 [Compound (1)]" numeric_readout=90
compound="C[C@@H](C(=O)N1Cc2[nH]nc(NC(=O)c3ccc(N4CCN(C)CC4)cc3)c2C1)c1ccccc1 [Compound (11)]" numeric_readout=90
compound="CN1CCN(c2ccc(C(=O)Nc3[nH]nc4c3CN(C(=O)Cc3ccccc3)C4)cc2)CC1 [Reference compound, reference compound]" numeric_readout=33

Here is the next item to consider.
Record summary for CO[C@@H](C(=O)N1Cc2[nH]nc(NC(=O)c3ccc(N4CCCCC4)cc3)c2C1)c1ccccc1 [Compound (6)] : reported Cell Cycle block (% G2/M + polyploidy at 200 nM) = 90
